Attribution: ChEMBL document CHEMBL4411283

- System: MCF7
- test_protocol: cells
- particulars: Homo sapiens, MCF7, 72 h
- Description: Antiproliferative activity against human MCF7 cells after 72 hrs by CellTiter 96 aqueous one solution assay
recorded_endpoint: IC50 (µM)

// worked examples, IC50 included
molecule_smiles	IC50, µM
O=c1[nH]c(/C=C/c2c(Br)ccc3c2OCO3)nc2ccccc12	12.8
O=[N+]([O-])c1cccc(/C=C/c2nc(Nc3cccc(O)c3)c3ccccc3n2)c1	10.1
Cc1nc(Nc2ncc(C(=O)Nc3c(C)cccc3Cl)s2)cc(N2CCN(CCO)CC2)n1	1.11
COc1ccccc1/C=C/c1nc2ccccc2c(=O)[nH]1	4.45
COc1ccccc1/C=C/c1nc(Nc2ccc3c(c2)OCO3)c2ccccc2n1	4.86

(I) Oc1cccc(Nc2nc(/C=C/c3cc4c(cc3Br)OCO4)nc3ccccc23)c1
(II) Oc1ccc(Nc2nc(/C=C/c3cccc(Cl)c3)nc3ccccc23)cc1
Could you point out whether the larger IC50 belongs to I or to II ? # respond with the chosen item's label
II

----------
- Test system: MCF7
- test_protocol: cells
- particulars: Homo sapiens, MCF7, 72 h
recorded_endpoint: IC50 (µM)

molecule_smiles	IC50 / µM
CC(=O)Oc1cccc(/C=C/c2nc3ccccc3c(=O)[nH]2)c1	6.37
COc1ccccc1/C=C/c1nc(Nc2ccc(O)cc2)c2ccccc2n1	8.29

----------
- System: MCF7
- test_protocol: cells
- particulars: Homo sapiens, MCF7, 72 h
recorded_endpoint: IC50 (µM)

Solved cases below.
molecule_smiles	result_value
COc1ccc(/C=C/c2nc(NCCCN(C)C)c3ccccc3n2)cc1	27
COc1ccccc1/C=C/c1nc(Nc2cccc(O)c2)c2ccccc2n1	11.2
COc1ccccc1/C=C/c1nc(Nc2ccccc2Cl)c2ccccc2n1	18.9
CC(=O)Oc1ccccc1/C=C/c1nc(Nc2ccccc2I)c2ccccc2n1	15.6
COc1ccc(OC)c(Nc2nc(/C=C/c3ccccc3OC(C)=O)nc3ccccc23)c1	7.84

(I) COc1ccccc1/C=C/c1nc(NCc2ccc3c(c2)OCO3)c2ccccc2n1
(II) CCOc1ccccc1/C=C/c1nc2ccccc2c(=O)[nH]1
Which one would you say has the larger IC50 value: I , or II ? Return value: the label identifying the chosen record.
I

----------
- target_system: Tyrosine-protein kinase CSK (Homo sapiens, UniProt P41240)
recorded_endpoint: IC50 (µM)
Only the number, expressed in µM, is required.

Please indicate IC50 recorded for CCN(CC)CCCC(C)Nc1nc(/C=C/c2cc(OC)c(OC)cc2Cl)nc2cc(Cl)ccc12 (stereo unspecified)
6.85

----------
- target_system: Calcium/calmodulin-dependent protein kinase type 1G (Homo sapiens)
- Sequence (Q96NX5 whole entry): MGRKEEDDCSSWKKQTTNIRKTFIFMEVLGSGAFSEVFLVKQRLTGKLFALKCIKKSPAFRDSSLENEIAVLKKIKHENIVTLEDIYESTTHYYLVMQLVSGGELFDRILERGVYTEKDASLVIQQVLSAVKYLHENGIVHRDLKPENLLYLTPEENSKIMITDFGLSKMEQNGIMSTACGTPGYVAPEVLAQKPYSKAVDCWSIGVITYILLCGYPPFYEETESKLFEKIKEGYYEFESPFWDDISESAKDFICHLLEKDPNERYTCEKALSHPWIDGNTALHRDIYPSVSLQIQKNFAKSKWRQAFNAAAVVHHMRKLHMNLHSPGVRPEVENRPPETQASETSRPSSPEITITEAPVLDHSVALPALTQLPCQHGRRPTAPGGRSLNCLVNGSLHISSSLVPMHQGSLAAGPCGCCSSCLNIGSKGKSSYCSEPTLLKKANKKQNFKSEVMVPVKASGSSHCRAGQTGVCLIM
- test_protocol: Inhibition of human CAMK1G using KKALRRQETVDAL as substrate by [gamma-33P]-ATP assay
recorded_endpoint: pIC50
Keep it numeric: pIC50 is minus log10 of the concentration in mol/L.

# return recorded pIC50 for entry CCN(CC)CCCC(C)Nc1nc(/C=C/c2cc(OC)c(OC)cc2Cl)nc2cc(Cl)ccc12 (stereo unspecified)
5.32

----------
- target_system: UniProtKB Q15303
- Sequence (Q15303 whole entry): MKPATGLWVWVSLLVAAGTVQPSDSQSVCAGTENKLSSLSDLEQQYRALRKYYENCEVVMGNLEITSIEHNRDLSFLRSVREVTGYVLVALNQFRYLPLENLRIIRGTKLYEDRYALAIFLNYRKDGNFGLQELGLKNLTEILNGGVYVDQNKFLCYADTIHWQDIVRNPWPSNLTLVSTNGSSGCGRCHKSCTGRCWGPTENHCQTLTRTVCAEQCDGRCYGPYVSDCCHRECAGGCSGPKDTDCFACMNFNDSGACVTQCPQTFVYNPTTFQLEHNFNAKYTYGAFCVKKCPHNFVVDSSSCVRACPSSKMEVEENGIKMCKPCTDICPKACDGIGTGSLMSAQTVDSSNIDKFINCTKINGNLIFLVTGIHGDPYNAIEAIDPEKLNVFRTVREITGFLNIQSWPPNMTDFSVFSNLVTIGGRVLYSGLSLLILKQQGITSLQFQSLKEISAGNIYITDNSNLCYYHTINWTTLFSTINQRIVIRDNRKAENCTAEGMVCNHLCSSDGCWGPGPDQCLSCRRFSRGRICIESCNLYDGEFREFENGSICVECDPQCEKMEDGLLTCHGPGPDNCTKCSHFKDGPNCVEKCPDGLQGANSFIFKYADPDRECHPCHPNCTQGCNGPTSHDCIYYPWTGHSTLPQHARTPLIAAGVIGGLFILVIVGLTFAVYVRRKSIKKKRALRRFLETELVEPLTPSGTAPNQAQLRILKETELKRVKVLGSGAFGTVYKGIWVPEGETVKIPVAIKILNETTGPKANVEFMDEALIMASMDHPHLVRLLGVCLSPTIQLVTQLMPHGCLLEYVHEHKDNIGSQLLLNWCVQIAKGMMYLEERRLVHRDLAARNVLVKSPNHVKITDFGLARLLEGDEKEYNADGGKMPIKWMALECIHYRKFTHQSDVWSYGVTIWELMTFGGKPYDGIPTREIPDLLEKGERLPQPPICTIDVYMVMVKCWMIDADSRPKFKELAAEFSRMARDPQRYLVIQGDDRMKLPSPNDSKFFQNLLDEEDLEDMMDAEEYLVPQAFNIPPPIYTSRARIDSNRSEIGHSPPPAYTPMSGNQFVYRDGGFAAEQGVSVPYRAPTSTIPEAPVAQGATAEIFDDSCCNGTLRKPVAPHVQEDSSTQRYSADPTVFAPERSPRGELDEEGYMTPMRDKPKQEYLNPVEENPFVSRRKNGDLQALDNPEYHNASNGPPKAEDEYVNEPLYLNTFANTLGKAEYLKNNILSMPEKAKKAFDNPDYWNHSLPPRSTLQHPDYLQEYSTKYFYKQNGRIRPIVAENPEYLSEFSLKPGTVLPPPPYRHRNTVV
recorded_endpoint: pIC50
Lab note — pIC50 values are minus log10 of concentrations in M.

Under UniProtKB Q15303, report pIC50 for CCN(CC)CCCC(C)Nc1nc(/C=C/c2cc(OC)c(OC)cc2Cl)nc2cc(Cl)ccc12 (stereo unspecified)
5.11

----------
Reported IC50 is given for each of the following compounds.
- Tested on: MCF7
- test_protocol: cells
- particulars: Homo sapiens, MCF7, 72 h

Field: example entries. Status: answers known.
compound	IC50
COc1ccc(Cl)c(Nc2ncnc3cc(OCC4CCN(C)CC4)c(OC)cc23)c1 [AZM-475271]	> 25 µM
CCCCOc1ccc(/C=C/c2nc3ccccc3c(=O)[nH]2)cc1	> 25 µM

Kindly consider the entry below.
Please indicate recorded IC50 of "O=c1[nH]c(/C=C/c2cc3c(cc2Br)OCO3)nc2ccccc12" measured with MCF7.
> 25 µM
